- method_summary: activity coefficient (dimensionless); of the first substance listed, at infinite dilution; xn = mol fraction of the nth substance listed
- test_settings: 328.15 K; 101 kPa; Liquid; Chromatography; x1 = 0
parameter: activity coefficient

                                   compound  measurement
0  Cc1ccc(C)cc1 [1,4-dimethylbenzene] + CCn1cc[n+](C)c1.CS(=O)(=O)[O-]         18.7

[P] C1CCOC1 [tetrahydrofuran] + CCn1cc[n+](C)c1.CS(=O)(=O)[O-]
[Q] O [water] + CCn1cc[n+](C)c1.CS(=O)(=O)[O-]
[R] C1COCCO1 [1,4-dioxane] + CCn1cc[n+](C)c1.CS(=O)(=O)[O-]
[S] CCOC(C)(C)C [2-ethoxy-2-methylpropane] + CCn1cc[n+](C)c1.CS(=O)(=O)[O-]
Task: Rank the 4 compounds: largest activity coefficient first, smallest last. Sort and list the labels as requested.
Output: S, P, R, Q
(S: 57.1, P: 5.2, R: 2.67, Q: 0.075)

====

- method_summary: activity coefficient (dimensionless); of the first substance listed, at infinite dilution; xn = mol fraction of the nth substance listed
- test_settings: 348.15 K; 101 kPa; Liquid; Chromatography; x1 = 0
parameter: activity coefficient

In [3]: df
Out[3]:
                                   molecule             parameter  measurement
0  Cc1ccccc1C [1,2-dimethylbenzene] + CCn1cc[n+](C)c1.CS(=O)(=O)[O-]  activity coefficient         13.8

[A] O [water] + CCn1cc[n+](C)c1.CS(=O)(=O)[O-]
[B] CCCCCCCCC [nonane] + CCn1cc[n+](C)c1.CS(=O)(=O)[O-]
[C] CCCCCCCC [octane] + CCn1cc[n+](C)c1.CS(=O)(=O)[O-]
[D] C1CCCC1 [cyclopentane] + CCn1cc[n+](C)c1.CS(=O)(=O)[O-]
Task: Rank the 4 molecules: largest activity coefficient first, smallest last. Sort and list the labels as requested.
Output: B, C, D, A

====

- method_summary: activity coefficient (dimensionless); of the first substance listed, at infinite dilution; xn = mol fraction of the nth substance listed
- test_settings: 328.15 K; 101 kPa; Liquid; Chromatography; x1 = 0
parameter: activity coefficient

In [3]: df
Out[3]:
                                   compound             parameter  measurement
0  CCCCCCCC [octane] + CCn1cc[n+](C)c1.CS(=O)(=O)[O-]  activity coefficient          453
1  CCC(=O)CC [pentan-3-one] + CCn1cc[n+](C)c1.CS(=O)(=O)[O-]  activity coefficient         7.86
2  c1ccccc1 [benzene] + CCn1cc[n+](C)c1.CS(=O)(=O)[O-]  activity coefficient          328

[I] CCCO [propan-1-ol] + CCn1cc[n+](C)c1.CS(=O)(=O)[O-]
[II] C=CCCCCCCCC [1-decene] + CCn1cc[n+](C)c1.CS(=O)(=O)[O-]
[III] CCCCCCCCCC [decane] + CCn1cc[n+](C)c1.CS(=O)(=O)[O-]
[IV] CCCC(C)=O [pentan-2-one] + CCn1cc[n+](C)c1.CS(=O)(=O)[O-]
Task: Rank the 4 compounds: largest activity coefficient first, smallest last. Sort and list the labels as requested.
Output: III, II, IV, I

[1] CCCCCCCCC [nonane] + CCn1cc[n+](C)c1.CS(=O)(=O)[O-]
[2] CO [methanol] + CCn1cc[n+](C)c1.CS(=O)(=O)[O-]
Task: Would you let me know which has the greater activity coefficient value, 1 or 2 ? Identify your pick by its label.
Output: 1
(1: 690, 2: 0.228)
